Entries and their Activity values follow.
tested on: HMEC; assay: Cytotoxic effect of LDL oxidized by HMEC1 cells at 10 uM by MTT assay expressed as percentage of viability in unstimulated control; type: functional, Homo sapiens
reported.property: Activity

INSERT INTO results (structure_as_smiles, assay_value) VALUES
  ('COc1cc(/C=C/C(=O)NCCc2c[nH]c3ccccc23)ccc1O', '93.6%'),
  ('COc1cc(/C=C/C(=O)SCCNC(C)=O)cc(OC)c1O', '88.7%'),
  ('CC(=O)NCCSC(=O)/C=C/c1ccc(O)cc1', '22.6%'),
  ('CCOP(=O)(/C=C/c1ccc(O)cc1)OCC', '65.3%');
